# system-tested: T1, HUMAN B7H3 (Biacore analyte) (human, UniProt Q5ZPR3 29-461, limits assumed)
# T1 construct: also called hB7H3
# T1 sequence (looked up): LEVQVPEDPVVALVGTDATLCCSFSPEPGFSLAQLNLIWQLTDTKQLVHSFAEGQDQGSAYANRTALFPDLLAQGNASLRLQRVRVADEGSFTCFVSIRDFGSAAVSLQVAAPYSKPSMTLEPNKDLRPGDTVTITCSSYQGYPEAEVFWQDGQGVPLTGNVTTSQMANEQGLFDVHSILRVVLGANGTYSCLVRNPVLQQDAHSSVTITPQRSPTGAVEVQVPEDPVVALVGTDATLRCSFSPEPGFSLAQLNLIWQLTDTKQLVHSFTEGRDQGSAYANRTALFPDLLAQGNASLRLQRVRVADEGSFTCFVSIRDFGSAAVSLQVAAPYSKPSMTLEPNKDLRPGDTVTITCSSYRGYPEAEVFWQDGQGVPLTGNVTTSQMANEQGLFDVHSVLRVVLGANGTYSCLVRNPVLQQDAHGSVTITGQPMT
# assay-name: SPR, Biacore 8K, antibody captured, B7H3 as analyte, 1:1 binding
The following binders are listed with their measured Kd values.
Provide only the numeric value, understood in nM.

Known results for binders:
18-F9-D8-G7 (human IgG1 chimeric antibody) (antibody, V domains shown, human IgG1 chimeric antibody of the mouse clone) VH: EVQLQQSGPELVRPGVSVKISCKGSGYTFTDYAMHWVKQSHAQSLEWIGIINTYSGDTNYNQKFKGKATMTVDKSSSTAYMGLARLTSEDSAIFYCARGGGNYPYWYFDVWGAGTTVTVSS VL: ENVLTQSPAIMSASPGEKVTMTCRASSSVSSSYLHWYQQKSGDSPKLWIYSTSNLASGVPARFSGSGSGTSYSLTISSVEAEDAATYYCQQFSVYPLTFGAGTKLEIK = 0.489
16-C6-F7-F5 (human IgG1 chimeric antibody) (antibody, V domains shown, human IgG1 chimeric antibody of the mouse clone) VH: QIQLVQSGPEVKKPGETVKISCKASGYTFTKYGINWVKQAPGEGLKWMGWIWTYTGKPTYGDDFKGRFAFSLETSASTAYLQISDLKIEDMATYFCARDDGYYYTMNYWGQGTSVTVSS VL: DIVMTQTPLSLPVSLGDQASISCRSSQSLLHTNGDTYLHWYLQKAGQPPKLLIYKVSNRFSGVPDRFSGSGSGTDFTLKISRVEAEDLGVYFCSQSTHIPWTFGGGTKLEIK = 0.645
7-E1-F8-F6 (human IgG1 chimeric antibody) (antibody, V domains shown, human IgG1 chimeric antibody of the mouse clone) VH: QVQLQQSGPELVKPGASVQMSCKASGYTFTDYVISWVNQRTGQGLEWIGEIYPRSGNTYYNEKFKGKATLTADKSSNTAYMQLSSLTSEDSAVYFCARFDIAYSFDYWGQGTTLTVSS VL: DVVMTQTPLSLPVSLGDQASISCRSTQSLVHSNGVTYLHWYLQKPGQSPKLLIYKVSNRFSGVPDRFSGSGSGTDFTLKISRVEAEDLGVYFCSQGTHVPWTFGGGTKLEIK = 0.855
10-B9-D10-A12 (human IgG1 chimeric antibody) (antibody, V domains shown, human IgG1 chimeric antibody of the mouse clone) VH: EVQLQESGPELVRPGVSVKISCKGSGYTFTDYTMHWVKLSHAKSLEWIGVISTYYGNTNYNQKFKGKATLTVDKSSSTAYMELARLTSEDSAIYYCARASYGSGYGPYYWYFDVWGAGTTVTVSS VL: DIQMTQSPASLFASVGETVTITCRASEKIYSYLAWYFQKQGKSPQFLVYNANALAEGVPSRFSGSGSGTQFSLKINSLQPEDFGTYYCQHHYGTPVTFGAGSKLELK = 0.752

Prompt line: Report Kd for 20-C5-D7-D3 (human IgG1 chimeric antibody) (antibody, V domains shown, human IgG1 chimeric antibody of the mouse clone) VH: EVQLVESGGDLVKPGGSLKLSCAASGFTFRSYGMSWVRQTPDKRLEWVATISGGGNYTYYPDSVKGRFTISRDNAKNTLYLQMSSLKSEDTAMYYCARHEGLPLDYWGQGTTLTVSS VL: DIQMTQSPASLSASVGETVTITCRASENIYSYLAWYQQKQGKSPQLLVYNAKTLAEGVPSRFSGSGSGTQFSLKINSLQPEDFGNFYCQHHYGTPTWTFGGGTKLEIK please.
Response line: 0.644

Prompt line: # iterate: 16-G3-D10-C10 (human IgG1 chimeric antibody) (antibody, V domains shown, human IgG1 chimeric antibody of the mouse clone) VH: QIQLVQSGPELKKPGETVKISCKASGYTFRNYGMNWVKQGPGKDLKWMGWINPYTGEPTYIGDFKGRFAFSLETSANSAYLQINNLNNEDMATYFCARDDGYWYTMDYWGQGTSVTVSS VL: DVVMTQTPPSLPVSLGDQASIPCRSSQSLVHSNGITYLHWYLQKPGQSPKLLIYKVSNRFSGVPDRFSGSGSGTDFTLKISRVEAEDLGVYFCSQSTHVPWTFGGGTKLEIK
Response line: 1.16
